Kindly state inhibition at 10000 µM for each of the entries shown.
# System: coxsackie B virus strain 1
# Assay procedure: CPE inhibition in mammalian cell culture, Cox-B1
# Assay type: cell-based
# Measurement context: read-out: antiviral effect, B1
Give bare numbers, in %.

Known inhibition at 10000 µM results, listed for orientation:
>>> measured("COc1ccc(-c2c(C)nn3c(NCc4ccc(F)cc4)cc(C)nc23)cc1OC")
53
>>> measured("COc1ccc(-c2c(C)nn3c(NCc4ccc(C)cc4)cc(C)nc23)cc1OC")
35
>>> measured("CC(C)c1cc(NCc2ccccc2)n2ncc(-c3ccccc3)c2n1")
36

Task: GET /values?readout=inhibition at 10000 µM&item= COc1ccc(-c2c(C)nn3c(NCC(C)c4ccccc4)cc(C)nc23)cc1OC (stereo not shown)
Result: 79

* * *

# System: Enterovirus strain 30
# Assay procedure: CPE inhibition in mammalian cell culture, EV30
# Format: cell-based
# Measurement context: Conc. 0.1 mM, read-out: antiviral effect, EV30
Kindly state inhibition at 100 µM for each of the entries shown.

Known inhibition at 100 µM results, listed for orientation:
>>> measured("COc1ccc(CNc2cc(C)nc3c(-c4ccc(OC)c(OC)c4)c(C)nn23)cn1 [Ex. 79]")
"10%"
>>> measured("COc1ccc(-c2c(C)nn3c(NCc4ccc(O)cc4)cc(C)nc23)cc1OC [Ex. 81]")
"97%"
>>> measured("COc1ccc(-c2c(C)nn3c(NCc4ccncc4)cc(C)nc23)cc1OC [Ex. 75]")
"100%"
>>> measured("COc1ccc(-c2cnn3c(NCc4ccncc4)cc(C)nc23)cc1OC [Ex. 100]")
"78%"
>>> measured("COc1ccc(-c2c(C)nn3c(NCc4ccc(C(C)=O)cc4)cc(C)nc23)cc1OC [Ex. 94]")
"96%"
>>> measured("COc1ccc(-c2c(C)nn3c(NCc4cccc(S(C)(=O)=O)c4)cc(C)nc23)cc1OC [Ex. 82]")
"94%"

Please examine the following record next.
Task: GET /values?readout=inhibition at 100 µM&item= COc1ccc(-c2cnn3c(NCc4cccc(S(C)(=O)=O)c4)cc(C)nc23)cc1OC [Ex. 101]
Result: 89%

* * *

Kindly state inhibition for each of the entries shown.
# Test system: Ljungan virus strain 145
# Assay procedure: CPE inhibition in mammalian cell culture, LV145
# Assay type: cell-based
# Parameters: dose or concentration left out as unconfirmed
# Measurement context: Parechovirus B; Conc.; read-out: antiviral effect, LV145
Numbers only, in %.

>>> measured("COc1ccc(-c2c(C)nn3c(NCc4ccc(F)cc4)cc(C)nc23)cc1OC")
59

Parameters: items (list). Returns: inhibition for each item.
1. COc1ccc(-c2c(C)nn3c(NCC(C)c4ccccc4)cc(C)nc23)cc1OC (centres unmarked)
2. Cc1ccc(-c2c(C)nn3c(NCc4ccccn4)cc(C)nc23)cc1
3. CC(C)c1cc(NCc2ccccc2)n2ncc(-c3ccccc3)c2n1

Result:
41
69
61

Task: Give inhibition (Ljungan virus strain 145) of the following molecule: "COc1ccc(-c2c(C)nn3c(NCc4ccc(C)cc4)cc(C)nc23)cc1OC"
Result: 63

* * *

Kindly state inhibition at 1 µM for each of the entries shown.
# System: Enterovirus strain 71
# Assay procedure: CPE inhibition in mammalian cell culture, EV71
# Assay type: cell-based
# Measurement context: EV71, Conc. 1.0 μM
Numbers only, in %.

Known inhibition at 1 µM results, listed for orientation:
>>> measured("Cc1ccc(-c2c(C)nn3c(NCc4cccnc4)cc(C)nc23)cc1")
100
>>> measured("Cc1cc(NCc2cccnc2)n2nc(C)c(-c3ccc(Cl)cc3)c2n1")
100
>>> measured("Cc1cc(NCc2ccccc2)n2nc(C)c(-c3ccc(F)cc3)c2n1")
66

Please examine the following record next.
Task: GET /values?readout=inhibition at 1 µM&item= "COc1ccc(-c2c(C)nn3c(Nc4ccc(C(C)C)cc4)cc(C)nc23)cc1OC"
Result: 69

Reference source for all entries: patent US9963455B2
